Data provenance is patent US12564638B2.

# Tested on: HCC827 cells (EGFR Exon19 del, non-small cell lung cancer cells)
# test: Cell viability assay (WST/CCK8), HCC827 cells
# Assay type: cell-based
# experimentalContext: Homo sapiens, HCC827, 72 h, Table 3, poziotinib-based compounds; HCC827 (Exon19 Del); 72 hours; WST (CCK8); read-out: IC50 (half inhibitory concentration)
endpointLabel: IC50 (nM)

# molecule, unitLabel, recordedMeasurement
measured = [
    ("C=CC(=O)N1CCC(Oc2cc3c(Nc4ccc(Cl)c(Cl)c4F)ncnc3cc2OC)CC1 [poziotinib, reference compound]", "nM", 0.5),
]

P = COc1cc2ncnc(Nc3ccc(Cl)c(Cl)c3F)c2cc1OC1CCN(C(=O)CCCCCCC(=O)N[C@H](C(=O)N2C[C@H](O)C[C@H]2C(=O)NCc2ccc(-c3scnc3C)cc2)C(C)(C)C)CC1
Q = COc1cc2ncnc(Nc3ccc(Cl)c(Cl)c3F)c2cc1OC1CCN(C(=O)CNc2cccc3c2C(=O)N(C2CCC(=O)NC2=O)C3=O)CC1 (stereo not drawn)
[Q] Dear colleague, could you let me know whether P or Q has the lower recorded IC50? Thanks. Bench note: the answer is the label of the chosen record.
[A] Q

1 = COc1cc2ncnc(Nc3ccc(Cl)c(Cl)c3F)c2cc1OC1CCN(C(=O)CCCCCCSc2cccc3c2CN(C2CCC(=O)NC2=O)C3=O)CC1 (stereo not drawn)
2 = COc1cc2ncnc(Nc3ccc(Cl)c(Cl)c3F)c2cc1OC1CCN(C(=O)CCOCCOCCC(=O)N[C@H](C(=O)N2C[C@H](O)C[C@H]2C(=O)NCc2ccc(-c3scnc3C)cc2)C(C)(C)C)CC1
[Q] Lower value of IC50 belongs to which: 1 or 2 ? Answer = label.
[A] 1
(1: 38 nM, 2: 158 nM)
